Reference for the values: patent US10160762B2

- tested-on: Rhesus PDE2A3 (Macaca mulatta)
- Construct: made in house; host or cells: AD293 cells, transient transfection; supernatant of sonicated lysate
- Sequence (B3VTJ2 1-941): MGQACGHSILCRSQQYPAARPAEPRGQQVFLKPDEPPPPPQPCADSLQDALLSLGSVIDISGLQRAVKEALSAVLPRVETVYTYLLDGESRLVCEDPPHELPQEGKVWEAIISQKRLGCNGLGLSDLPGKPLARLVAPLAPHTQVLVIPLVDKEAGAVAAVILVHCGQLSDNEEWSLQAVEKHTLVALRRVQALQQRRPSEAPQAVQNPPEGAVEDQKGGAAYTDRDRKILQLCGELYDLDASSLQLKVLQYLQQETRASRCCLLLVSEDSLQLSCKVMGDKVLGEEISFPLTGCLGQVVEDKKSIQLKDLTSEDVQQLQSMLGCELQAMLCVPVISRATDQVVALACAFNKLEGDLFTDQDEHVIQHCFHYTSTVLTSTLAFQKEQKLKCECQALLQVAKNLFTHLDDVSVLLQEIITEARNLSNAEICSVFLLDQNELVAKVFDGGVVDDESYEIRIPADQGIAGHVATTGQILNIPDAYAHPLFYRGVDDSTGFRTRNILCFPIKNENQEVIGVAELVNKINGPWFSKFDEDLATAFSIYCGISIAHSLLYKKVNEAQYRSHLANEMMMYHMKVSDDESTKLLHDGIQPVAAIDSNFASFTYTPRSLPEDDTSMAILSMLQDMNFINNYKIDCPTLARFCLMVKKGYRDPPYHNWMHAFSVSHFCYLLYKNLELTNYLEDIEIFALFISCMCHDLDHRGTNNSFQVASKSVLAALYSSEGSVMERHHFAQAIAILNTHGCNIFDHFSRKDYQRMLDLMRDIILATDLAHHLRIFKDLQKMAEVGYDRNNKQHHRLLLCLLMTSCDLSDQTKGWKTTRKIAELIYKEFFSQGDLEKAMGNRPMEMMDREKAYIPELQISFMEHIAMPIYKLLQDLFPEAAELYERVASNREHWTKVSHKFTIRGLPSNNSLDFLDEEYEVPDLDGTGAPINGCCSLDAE
- assay-procedure: PDE2 fluorescence polarization (IMAP FP) inhibition assay, rhesus PDE2A3
- Type: biochemical, rhesus macaque
- condition-set: Lab B; read-out: Rhesus PDE2 Ki (nM) Lab B
measurement-name: Ki (nM)

Guide cases for Ki, answers given:
// Cc1nc2c(c(CS(C)(=O)=O)nn2C(C)c2ccc(C(F)(F)F)cc2)c(=O)[nH]1 (single isomer, unassigned) [Example 272] : Ki value = 1210

// Cc1nc2c(c(CO)nn2C(C)c2ccc(OC(F)(F)F)cc2)c(=O)[nH]1 (centres unmarked) : Ki value = 7.1

A: Cc1nc2c(c(CO)nn2C(c2ccc(C(F)(F)F)c(F)c2)C(C)(C)C)c(=O)[nH]1 (single isomer, unassigned) [Example 129]
B: Cc1nn(C(C)c2ccc(C(F)(F)F)cc2)c2nc(Cc3cccc(O)c3)[nH]c(=O)c12 (centres unmarked)
Q: Which of the two items, A and B , has the greater recorded Ki? Returns: label corresponding to the selected item.
Ans: B
